# Measurement Protocol: AUC (0 to 24 hrs) in Sprague-Dawley rat at 10 mg/kg, po by LC-MS/MS analysis
# Assay type: ADME, organism-based
# Parameters: time < 24 hr, dose 10 mg/kg, route oral
# Condition Summary: plasma
Measured Quantity: AUC(0-t) at 24 h (ng·h/mL)
Numbers only, in ng·h/mL.

Query: Consider the compound Cc1nc(C2CCOCC2)n2c1sc1cc(OCc3ccc4ccccc4n3)ccc12 and give its recorded AUC(0-t) at 24 h.
Reply: 2830

* * *

# Measurement Protocol: Drug uptake in Sprague-Dawley rat brain at 10 mg/kg, po after 30 mins
# Type: ADME, organism-based
# Design: dose 10 mg/kg, route oral
# Condition Summary: read-out: Drug uptake
Measured Quantity: concentration at 0.5 h (ng/g)
Give bare numbers, in ng/g.

// known answers, use as guide
{"Chem Smiles": "Cc1nc([C@@]23COC[C@@H]2C3)n2c1sc1cc(OCc3ccc4ccccc4n3)ccc12", "Measured Quantity": "concentration at 0.5 h", "Readout Unit": "ng/g", "Observed Value": 430}
{"Chem Smiles": "Cc1nc(C2CCOCC2)n2c1sc1cc(OCc3ccc4ccccc4n3)ccc12", "Measured Quantity": "concentration at 0.5 h", "Readout Unit": "ng/g", "Observed Value": 672}
{"Chem Smiles": "CC(=O)N1CCC(c2nc(C)c3sc4cc(OCc5ccc6ccccc6n5)ccc4n23)CC1", "Measured Quantity": "concentration at 0.5 h", "Readout Unit": "ng/g", "Observed Value": 165}
{"Chem Smiles": "CC(=O)N1CC(c2nc(C)c3sc4cc(OCc5ccc6ccccc6n5)ccc4n23)C1", "Measured Quantity": "concentration at 0.5 h", "Readout Unit": "ng/g", "Observed Value": 62}

Field: next compound
Query: Consider the compound Cc1nc([C@]23COC[C@H]2C3)n2c1sc1cc(OCc3ccc4ccccc4n3)ccc12 and give its recorded concentration at 0.5 h.
Reply: 732

* * *

# Measurement Protocol: Plasma concentration in Sprague-Dawley rat at 10 mg/kg, po after 30 mins
# Type: ADME, organism-based
# Set-up: dose 10 mg/kg, route oral
Measured Quantity: concentration at 0.5 h
Please give the number followed by its unit.

{"Chem Smiles": "CC(=O)N1CCC(c2nc(C)c3sc4cc(OCc5ccc6ccccc6n5)ccc4n23)CC1", "concentration at 0.5 h": "396 ng/mL"}
{"Chem Smiles": "Cc1nc(C2CCOCC2)n2c1sc1cc(OCc3ccc4ccccc4n3)ccc12", "concentration at 0.5 h": "370 ng/mL"}
{"Chem Smiles": "Cc1nc([C@]23COC[C@H]2C3)n2c1sc1cc(OCc3ccc4ccccc4n3)ccc12", "concentration at 0.5 h": "394 ng/mL"}
{"Chem Smiles": "CC(=O)N1CC(c2nc(C)c3sc4cc(OCc5ccc6ccccc6n5)ccc4n23)C1", "concentration at 0.5 h": "137 ng/mL"}

Field: next molecule
Query: Consider the molecule Cc1nc([C@@]23COC[C@@H]2C3)n2c1sc1cc(OCc3ccc4ccccc4n3)ccc12 and give its recorded concentration at 0.5 h.
Reply: 164 ng/mL

* * *

# Measured On: cAMP and cAMP-inhibited cGMP 3',5'-cyclic phosphodiesterase 10A (Homo sapiens)
# Sequence (Q9Y233 whole entry): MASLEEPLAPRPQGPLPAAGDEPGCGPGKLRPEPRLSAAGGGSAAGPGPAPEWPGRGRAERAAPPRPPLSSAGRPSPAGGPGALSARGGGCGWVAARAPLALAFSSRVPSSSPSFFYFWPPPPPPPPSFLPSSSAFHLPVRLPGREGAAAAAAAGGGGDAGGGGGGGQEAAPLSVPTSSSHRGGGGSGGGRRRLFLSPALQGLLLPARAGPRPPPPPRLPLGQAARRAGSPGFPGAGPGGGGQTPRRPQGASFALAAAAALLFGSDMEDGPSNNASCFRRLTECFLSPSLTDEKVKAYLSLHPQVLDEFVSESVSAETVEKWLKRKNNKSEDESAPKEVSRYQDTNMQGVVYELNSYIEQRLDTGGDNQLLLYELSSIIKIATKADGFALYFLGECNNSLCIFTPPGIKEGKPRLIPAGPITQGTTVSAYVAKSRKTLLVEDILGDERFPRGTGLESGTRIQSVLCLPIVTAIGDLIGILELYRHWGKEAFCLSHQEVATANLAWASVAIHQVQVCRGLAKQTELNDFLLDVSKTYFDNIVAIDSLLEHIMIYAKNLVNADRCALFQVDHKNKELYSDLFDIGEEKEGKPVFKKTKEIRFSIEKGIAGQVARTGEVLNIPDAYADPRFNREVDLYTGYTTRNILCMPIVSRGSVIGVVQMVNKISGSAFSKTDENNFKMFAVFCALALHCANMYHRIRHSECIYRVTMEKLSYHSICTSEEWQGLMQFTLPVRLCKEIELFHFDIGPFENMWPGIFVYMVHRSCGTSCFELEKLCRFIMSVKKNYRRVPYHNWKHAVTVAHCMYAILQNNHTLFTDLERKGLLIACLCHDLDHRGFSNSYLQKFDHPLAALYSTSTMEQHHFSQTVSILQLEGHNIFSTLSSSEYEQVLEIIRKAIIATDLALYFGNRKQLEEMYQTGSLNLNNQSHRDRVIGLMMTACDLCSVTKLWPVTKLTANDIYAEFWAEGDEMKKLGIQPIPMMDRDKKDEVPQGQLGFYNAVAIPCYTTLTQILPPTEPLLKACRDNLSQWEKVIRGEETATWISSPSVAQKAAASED
# Measurement Protocol: Inhibition of human recombinant PDE10A using [3H]-cAMP/[3H]-cGMP as substrate after 30 mins by radiometric assay
Can you tell me IC50 for the items I'm about to list?
Numbers only, in nM.

// known answers, use as guide
{"Molecule": "Cc1nc2sc3cc(OCc4ccc5ccccc5n4)ccc3n2c1-c1ccncc1", "Measured Quantity": "IC50", "Observed Value": 351}
{"Molecule": "Cc1nc([C@@]23COC[C@@H]2C3)n2c1sc1cc(OCc3ccc4ccccc4n3)ccc12", "Measured Quantity": "IC50", "Observed Value": 6.88}
{"Molecule": "Cc1nc(C)c(-c2nc(C)c3sc4cc(OCc5ccc6ccccc6n5)ccc4n23)s1", "Measured Quantity": "IC50", "Observed Value": 0.9}
{"Molecule": "CC(=O)N1CC(c2nc(C)c3sc4cc(OCc5ccc6ccccc6n5)ccc4n23)C1", "Measured Quantity": "IC50", "Observed Value": 6.73}
{"Molecule": "c1ccc2nc(COc3ccc4c(c3)sc3nnc(-c5ccncc5)n34)ccc2c1", "Measured Quantity": "IC50", "Observed Value": 666}

Please state IC50 for every molecule in the list that follows.
1. Cc1nc(C2CCOC2)n2c1sc1cc(OCc3ccc4ccccc4n3)ccc12 (stereo not drawn)
2. Cc1nc(-c2ccnnc2)n2c1sc1cc(OCc3ccc4ccccc4n3)ccc12

Reply:
1. 18.5
2. 13.9

Query: Consider the molecule Cc1nc(C2CNC2)n2c1sc1cc(OCc3ccc4ccccc4n3)ccc12 and give its recorded IC50.
Reply: 157
